test system: NCI-H522 lung; test: NCI-60 one-dose screen, 48 h; conditions: 10 µM unless noted
About 83,000 compounds went through this panel and 20% of them were active in at least one assay; those are over-represented in the sample as a whole. The source made the active and inactive calls. The calls were made as follows: active = growth percent below 10; inactive = the rest.
Classes used: class 1 for active, class 0 for inactive

[
  {
    "MOLECULE": "CCN1C(=S)N(c2ccccc2)C2C1NN=c1s/c(=C3\\C(=O)N(C(C)C)c4ccccc43)c(=O)n12 (stereo not given)",
    "ASSIGNED_CATEGORY": "class 0"
  },
  {
    "MOLECULE": "CCOc1ccc(NC(=O)CSc2oc(-c3ccccc3)nc2S(=O)(=O)c2ccc(C)cc2)cc1",
    "ASSIGNED_CATEGORY": "class 0"
  },
  {
    "MOLECULE": "Cc1ccc2c(n1)C(=O)C(Br)=C(C1CCCC1)C2=O",
    "ASSIGNED_CATEGORY": "class 0"
  },
  {
    "MOLECULE": "O=c1c2cccc3c(N4CCCC4)ccc(c32)c2nc3ccccc3n12",
    "ASSIGNED_CATEGORY": "class 0"
  },
  {
    "MOLECULE": "Cc1c2cnccc2c(C)c2c1c1cc(C#N)ccc1n2C",
    "ASSIGNED_CATEGORY": "class 1"
  },
  {
    "MOLECULE": "O=S(=O)(Nc1cc(F)cc(Cl)c1)c1ccc(-c2cnc(C3CC3)o2)cc1",
    "ASSIGNED_CATEGORY": "class 1"
  },
  {
    "MOLECULE": "COc1cc2nc3cc([N+](=O)[O-])ccc3c(NCCNCC(C)O)c2cc1OC (stereo not given)",
    "ASSIGNED_CATEGORY": "class 1"
  },
  {
    "MOLECULE": "COc1ccc(/C=C(\\C#N)n2nnc3ccc(Cl)cc32)cc1",
    "ASSIGNED_CATEGORY": "class 0"
  },
  {
    "MOLECULE": "N#CC1=C(N)Oc2c(sc3c(Br)cccc23)C1c1ccc(Cl)cc1 (stereo not given)",
    "ASSIGNED_CATEGORY": "class 1"
  },
  {
    "MOLECULE": "C#CCOc1cccc(Nc2ncnc3cc(NC(=O)C=C)ccc23)c1",
    "ASSIGNED_CATEGORY": "class 1"
  },
  {
    "MOLECULE": "COC(=O)[C@@H](CCCCNC(=O)[C@]12CCC(C)(C)C[C@@H]1C1=CC[C@@H]3[C@@]4(C)C/C(=C/c5ccco5)C(=O)C(C)(C)[C@@H]4CC[C@@]3(C)[C@]1(C)CC2)NC(=O)[C@]12CCC(C)(C)C[C@@H]1C1=CC[C@@H]3[C@@]4(C)C/C(=C/c5ccco5)C(=O)C(C)(C)[C@@H]4CC[C@@]3(C)[C@]1(C)CC2",
    "ASSIGNED_CATEGORY": "class 0"
  },
  {
    "MOLECULE": "CCCn1cc2c(=O)nc3sc(Cc4ccccc4)c(C)n3c2n1",
    "ASSIGNED_CATEGORY": "class 0"
  },
  {
    "MOLECULE": "O=C(Nc1cccc2ccccc12)NC1CC1",
    "ASSIGNED_CATEGORY": "class 0"
  },
  {
    "MOLECULE": "CCOC(=O)c1cc2c(n1C)-c1nc(NC(C)=O)sc1CCC2",
    "ASSIGNED_CATEGORY": "class 0"
  },
  {
    "MOLECULE": "C[C@@H](CO)[C@@H]1CCC=C2CC[C@]3(C)[C@H](CC[C@@H]4[C@@]5(C)CCCNC(C)(C)[C@@H]5CC[C@]43C)[C@H]21",
    "ASSIGNED_CATEGORY": "class 0"
  },
  {
    "MOLECULE": "COc1ccc(C2=Nc3c(N)nc(N)nc3NC(c3cccc(Nc4ccnc5cc(C(F)(F)F)ccc45)c3)C2)cc1 (stereo not given)",
    "ASSIGNED_CATEGORY": "class 0"
  },
  {
    "MOLECULE": "Cc1cccc(/C=C2\\CN(C(=O)OC(C)(C)C)C/C(=C\\c3cccc(C)c3)C2=O)c1",
    "ASSIGNED_CATEGORY": "class 0"
  },
  {
    "MOLECULE": "CCN1CCN(C(=O)[C@]23CCC(C)(C)C[C@@H]2C2=CC[C@@H]4[C@@]5(C)CCC(=O)C(C)(C)[C@@H]5CC[C@@]4(C)[C@]2(C)CC3)CC1",
    "ASSIGNED_CATEGORY": "class 0"
  },
  {
    "MOLECULE": "CSc1nnc(-c2cc3c([nH]c4ccccc43)c(-c3cccc(O)c3)n2)n1-c1ccccc1",
    "ASSIGNED_CATEGORY": "class 1"
  },
  {
    "MOLECULE": "O=S(=O)(NCCCNc1nccc(-c2c(-c3ccc(F)c(O)c3)nc3occn23)n1)c1ccc(Cl)cc1",
    "ASSIGNED_CATEGORY": "class 0"
  }
]

Attribution: PubChem BioAssay (NCI)
